- measurement.target: T1, GST-Bcl-2 (UniProt P08515 1-218 = GST; P10415 1-218)
- T1 construct: Bacterially expressed, purified GST fusion used in FP, CD and in vitro immunoprecipitation; also called purified GST-Bcl-2 protein; bacterially expressed Bcl-2
- T1 sequence (P08515 1-218, tags or fused parts left off): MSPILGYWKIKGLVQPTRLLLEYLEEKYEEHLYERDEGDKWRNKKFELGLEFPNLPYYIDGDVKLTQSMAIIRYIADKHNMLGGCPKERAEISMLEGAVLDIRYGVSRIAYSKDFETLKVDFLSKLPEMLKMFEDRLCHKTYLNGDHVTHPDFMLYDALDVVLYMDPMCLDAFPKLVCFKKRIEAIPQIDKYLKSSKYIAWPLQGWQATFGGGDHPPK
- measurement.description: circular dichroism of GST-Bcl-2 with peptide, non-linear regression, one-site-binding model
reported.endpoint: Kd (nM)
Note: unit nM is implicit; provide only the numeric part.

binder Ac-FSRSLHSLL-NH2 [NuBCP-9 (unconjugated)] , Kd observed: 2100

Hello, the source for this data is patent US20070054863A1, in case you need it.
